- tgt: T1, human HER2 antigen protein (human, UniProt P04626 23-652)
- T1 construct: Antigen coated in the ELISA of Embodiment 5 and immobilised on the CM-5 chip in Embodiment 7; Embodiment 7 says only 'antigen protein Her2' without species or construct; also called antigen protein Her2
- run_description: Biacore, Her2 immobilised on CM-5 chip
Label condition met for high-side koff (at or above 0.002 s⁻¹) and condition not met for low-side koff (below it).

binder	group
Nanobody No. 13 (VHH, camel VHH from pMECs phage display vector; also called Antibody no; 13; not shown: tags (HA, His) implied by anti-HA detection and nickel column) VHH: QVQLQESGGGSVQAGETLRLSCTASGFTFDDSDMGWYRQAPGNECELVSTISADGSTFYADSVKGRFTISQDNAKNTVYLQMNSLKPEDTAVYYCASPENEYELGTCEALDYWGQGTQVTVSS	condition not met
Nanobody No. 23 (VHH, camel VHH from pMECs phage display vector; also called Antibody no; 23; not shown: tags (HA, His) implied by anti-HA detection and nickel column) VHH: QVQLQESGGGSVQAGGSLKLSCSASGFTFDDTDMGWYRQAPGNECELVSTISSDGTTYYTDSVKGRFTISQDNAKNTVYLQMNSLKPEDTAVYYCAAINSGYELGTCESLDYWGRGTQVTVSS	condition met
Nanobody No. 26 (VHH, camel VHH from pMECs phage display vector; also called Antibody no; 26; not shown: tags (HA, His) implied by anti-HA detection and nickel column) VHH: QVQLQESGGGSVQAGETLRLSCTASGFTFDDSDMGWYRQAPGNECELVSSISSDGSTYYADSVKGRFTISQDNAKNTVYLQMNSLKPEDTGVYYCAAEGHRYELGTCAALDYWGRGTQVTVSS	condition not met
Nanobody No. 17 (VHH, camel VHH from pMECs phage display vector; also called Antibody no; 17; not shown: tags (HA, His) implied by anti-HA detection and nickel column) VHH: QVQLQESGGGSVQAGGSLRLSCTASGFTFDDSDMGWYRQAPGNECELVSTISSDGSTYYADSVKGRFTISQDNAKNTVYLQMNSLKPEDTAVYYCADVQIPYGLGTCESLDYWGRGTQVTVSS	condition met
Nanobody No. 10 (VHH, camel VHH from pMECs phage display vector; also called Antibody no; 10; not shown: tags (HA, His) implied by anti-HA detection and nickel column) VHH: QVQLQESGGGSVQAGETLKLSCTASGFTFDDSTMAWYRQAPGNECKLVSTISSDGSTYYADSVKGRFTISQDNAKNTVYLQMNSLKPEDTAVYYCAADDQNYELGTCEALDYWGRGTQVTVSS	condition met
Nanobody No. 9 (VHH, camel VHH from pMECs phage display vector; also called Antibody no; not shown: tags (HA, His) implied by anti-HA detection and nickel column) VHH: QVQLQESGGGSVQAGETLRLSCTASGFTFDDSDMGWYRQAPGSECELVSTISSDGNTYYSNSVKGRFTISQDNAKNTVYLQMNSLKPEDTAVYYCAADDQHYELGTCEALDYWGRGTQVTVSS	condition met
Nanobody No. 22 (VHH, camel VHH from pMECs phage display vector; also called Antibody no; 22; not shown: tags (HA, His) implied by anti-HA detection and nickel column) VHH: QVQLQESGGGSVQAGGSLRLSCTASGFTFDDSDMGWYRQAPGNECELVSRISRDGTTYYADSVKGRFTISQDNAKNTVYLQMNSLKPEDTAVYYCADINSGYELGTCESLDYWGRGTQVTVSS	condition not met

The reported numbers originate from patent US20230263916A1.
